Target: HLA-DR (DRA1*01:01 / DRB1*03:01), soluble knob-into-hole Fc heterodimer (human)
Experiment: ELISA
quantity-kind: Ki (nM)

[[record]]
binder = "KPVSKMRMATPLLMQALPM [human CLIP peptide, unlabelled competitor]"
numeric_result = 23.9

